Target: HCV NS5B RdRp genotype 1b (Hepatitis C virus genotype 1b)
Construct: The protein was expressed with an 18 amino acid C-terminal truncation to enhance the solubility; made in house; host or cells: E. coli BL21 (DE3), pET21a
Sequence (Q9WMX2 2420-2992): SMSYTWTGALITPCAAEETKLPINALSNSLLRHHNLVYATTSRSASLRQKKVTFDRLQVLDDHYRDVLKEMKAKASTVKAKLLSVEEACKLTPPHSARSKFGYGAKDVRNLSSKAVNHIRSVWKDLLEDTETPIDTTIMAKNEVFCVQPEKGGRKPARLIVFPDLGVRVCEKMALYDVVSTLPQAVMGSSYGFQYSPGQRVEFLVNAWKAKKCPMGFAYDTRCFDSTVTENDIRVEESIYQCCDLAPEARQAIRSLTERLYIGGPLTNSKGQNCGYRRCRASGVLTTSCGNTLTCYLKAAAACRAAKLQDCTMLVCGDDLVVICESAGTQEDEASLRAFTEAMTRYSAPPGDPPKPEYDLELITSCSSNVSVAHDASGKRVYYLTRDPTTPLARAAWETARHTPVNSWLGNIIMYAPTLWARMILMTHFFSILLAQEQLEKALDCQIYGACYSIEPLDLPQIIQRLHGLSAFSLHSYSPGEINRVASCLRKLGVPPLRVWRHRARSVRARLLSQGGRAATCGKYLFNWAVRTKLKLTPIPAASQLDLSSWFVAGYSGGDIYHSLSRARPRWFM
Experiment Description: Modified HCV NS5B RdRp enzyme assay (with preincubation)
Assay type: biochemical
Settings: modified method (with preincubation)
Measured Parameter: IC50

For the record O=C(NS(=O)(=O)c1ccccc1)c1ccc2c(C3CCCCC3)c3n(c2c1)CC=Cc1ncccc1-3 , what value of IC50 is listed for HCV NS5B RdRp genotype 1b (Hepatitis C virus genotype 1b)?
0.02 to 1 µM

For the record CCN(CC)C(=O)C1=Cc2ccccc2-c2c(C3CCCCC3)c3ccc(C(=O)NS(=O)(=O)N(C)C)cc3n2C1 , what value of IC50 is listed for HCV NS5B RdRp genotype 1b (Hepatitis C virus genotype 1b)?
0.02 to 1 µM

For the record O=C(NS(=O)(=O)C1CC1)c1ccc2c(C3CCCCC3)c3n(c2c1)CC(C(=O)N1CCOCC1)Cc1ccccc1-3 (centres unmarked) [drawing 287] , what value of IC50 is listed for HCV NS5B RdRp genotype 1b (Hepatitis C virus genotype 1b)?
0.02 to 1 µM

For the record CS(=O)(=O)NC(=O)c1ccc2c(C3CCCCC3)c3n(c2c1)CCCc1ncccc1-3 , what value of IC50 is listed for HCV NS5B RdRp genotype 1b (Hepatitis C virus genotype 1b)?
0.02 to 1 µM

For the record O=C1Cn2c(c(C3CCCCC3)c3ccc(C(=O)NC4(C(=O)Nc5ncc(-c6ccc(C(=O)O)cc6)s5)CCCC4)cc32)-c2ccccc2N1 , what value of IC50 is listed for HCV NS5B RdRp genotype 1b (Hepatitis C virus genotype 1b)?
0.02 to 1 µM

For the record COC(=O)c1ccc2c(C3CCCCC3)c3n(c2c1)CC(C(=O)N1CCCOCC1)=Cc1ccccc1-3 , what value of IC50 is listed for HCV NS5B RdRp genotype 1b (Hepatitis C virus genotype 1b)?
> 1 µM

For the record COC(=O)c1ccc2c(C3CCCCC3)c3n(c2c1)CC(C(=O)N(C)C)=Cc1ccccc1-3 , what value of IC50 is listed for HCV NS5B RdRp genotype 1b (Hepatitis C virus genotype 1b)?
> 1 µM

For the record CCN(C)S(=O)(=O)NC(=O)c1ccc2c(C3CCCCC3)c3n(c2c1)CC(C(=O)N1CCOCC1)=Cc1ccccc1-3 , what value of IC50 is listed for HCV NS5B RdRp genotype 1b (Hepatitis C virus genotype 1b)?
0.02 to 1 µM

----------
Target: HCV NS5B RdRp genotype 1b (Hepatitis C virus genotype 1b)
Construct: The protein was expressed with an 18 amino acid C-terminal truncation to enhance the solubility; made in house; host or cells: E. coli BL21 (DE3), pET21a
Experiment Description: Modified HCV NS5B RdRp enzyme assay (with preincubation)
Type: biochemical
Settings: modified method (with preincubation)
pIC50: −log10 of the molar value.
Measured Parameter: pIC50

Could you share which pIC50 value was measured for COC(=O)c1ccc2c(C3CCCCC3)c3n(c2c1)CCCc1cc(OCc2cc([N+](=O)[O-])ccc2F)ccc1-3 ?
< 6.00

Could you share which pIC50 value was measured for COC(=O)c1ccc2c(C3CCCCC3)c3n(c2c1)C/C(=N/O)Cc1ccccc1-3 ?
< 6.00

Could you share which pIC50 value was measured for O=C(NS(=O)(=O)C1CC1)c1ccc2c(C3CCCCC3)c3n(c2c1)CC(C(=O)N1CCOCC1)Cc1ccccc1-3 (stereo not shown) [drawing 288] ?
6.00 to 7.70

Could you share which pIC50 value was measured for Cc1nc2c(s1)CCCn1c-2c(C2CCCCC2)c2ccc(C(=O)NC3(C(=O)Nc4ccc(/C=C/C(=O)O)cc4)CCCC3)cc21 ?
6.00 to 7.70
